target: Gal(a1-3)Gal(b1-4)GlcNAc(b1-3)GalNAc; assay: glycan array binding signal (z-score within array); higher = stronger binding; conditions: glycan notation: IUPAC condensed, linker removed
The sample as a whole holds a higher share of the strongest signals than the screen did.
Quick rule for you: glycan array binding signal (z-score) at 0.06 or higher means satisfied, lower means not satisfied.

FimA-N1 (Actinomyces oris) (protein) MHHHHHHSSGVDLGTENLYFQSNATETPNYGNIKTDATGSLVIHKHLTGGGKDIGTPTGTAQNADDKGPAVEGVVFTAYPITDINLKDPAGWDTISNLSRTGVPDSACANPAAPTLGAHQFGTPKVSPATTKEGLATITEMPVQAYLVCETTTPGDIVQKAKPFVVTIPHPNTAAGADGQWIYDVNVYPKNEAIDVDKTIQAQK : not satisfied

Item F17aG (Escherichia coli), Q99003 (protein) MTNFYKVFLAVFILVCCNISQAAVSFIGSTENDVGPSLGSYSRTHAMDNLPFVYDTRNKIGYQNANVWHISKGFCVGLDGKVDLPVVGSLDGQSIYGLTEEVGLLIWMGDTKYSRGTAMSGNSWENVFSGWCVGANTASTQGLSVRVTPVILKRNSSARYSVQKTSIGSIRMRPYNGSSAGSVQTTVNFSLNPFTLNDTVTSCRLLTPSAVNVSLAAISAGQLPSSGDEVVAGTTSLKLQCDAGVTVWATLTDATTPSNRSDILTLTGASTATGVGLRIYKNTDSTPLKFGPDSPVKGNENQWQLSTGTETSPSVRLYVKYVNTGEGINPGTVNGISTFTFSYQ with glycan array binding signal (z-score) of 0.06 or above?
not satisfied

Item cupB6 (Pseudomonas aeruginosa), Q02SP7 (protein) MSMRLFPGRVSLRRRPGAQARQALVLGLCCLTGGQAWALNEVALNCSFGNGKGLPWRVVNELTSGTAKGTVLFARPVSLFLSYKPQASQEAHELVLGGNWSGVGYPGPYGTVASDVKGIGYRISVDAQDGVKRVIPVDNQPHALDKRVTSFSGSTTSDYLQELVLTVDPGELPAGDLKVTSVSGSATLNLWAVDRLKGEASIGSVLAVPADNYPTGVCRKPYSLIGPASIAIGGGPPPPPIPKKCKVEVGREINVKLGSVALKNFPRVNDTSTERSFDISLSECAALAKPEIAFRDKYVSAQQADPTILSLKSGGAAGFGIVVKNGLDQQRIRFDGTPYPMRRVGDSADLPLSAAYIRIGAEGELKAGVADGAAEFTFTFP with glycan array binding signal (z-score) of 0.06 or above?
satisfied

Item FimA-N3 (Actinomyces oris) (protein) MHHHHHHSSGVDLGTENLYFQSNAGLQGAQFQLYKAKNAYANTCSNEKEGAPIAINGQTTLTTDAQGAIDIKGLFISDSIDGADRDNQVNAMERCYVLVETKAPAGYVLPAGNGAATPVKVKAGEETTDN with glycan array binding signal (z-score) of 0.06 or above?
satisfied

Item Epa21 (Candida glabrata) (protein) MGSSHHHHHHSSGLVPRGSHMASTPNIESHPQGCSPVDTSGIKPGLKMDLYRFPITPPGTGCWSWDWLTVTPDFPRSGYWKWPKIAEVDGVVGPLHLDSGHPTCDPLTSVLPHGFNYLQSITTTNFTMVLHGYFVPKQSGKYTFEFKADDALLLNLGAGNAFSCCDYNNSQYNQGEYLAYAIWSKNNQTATLYLEKGIYYPIRVFYHNRCCGAYMDVVYYFNDSPIPNRDFSGLLFSIPDSDSCDANI with glycan array binding signal (z-score) of 0.06 or above?
satisfied
